ASSAY TARGET: α2A receptor (Homo sapiens)
Construct: host or cells: LM(tk-) cells, line L-α2A
Sequence (P08913 whole entry): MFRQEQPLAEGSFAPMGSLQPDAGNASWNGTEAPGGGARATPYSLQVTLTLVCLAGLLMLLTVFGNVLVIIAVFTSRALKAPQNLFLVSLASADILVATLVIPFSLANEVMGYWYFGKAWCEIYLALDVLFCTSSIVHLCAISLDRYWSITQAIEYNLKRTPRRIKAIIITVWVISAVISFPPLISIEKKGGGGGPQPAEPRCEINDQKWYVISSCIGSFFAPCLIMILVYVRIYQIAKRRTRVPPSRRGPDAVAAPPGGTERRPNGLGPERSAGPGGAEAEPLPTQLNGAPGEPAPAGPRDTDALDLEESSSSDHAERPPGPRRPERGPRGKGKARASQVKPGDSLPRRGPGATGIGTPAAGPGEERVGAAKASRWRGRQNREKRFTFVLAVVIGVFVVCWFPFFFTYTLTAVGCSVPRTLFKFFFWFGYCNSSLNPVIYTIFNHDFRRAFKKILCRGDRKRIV
ASSAY NOTES: Competition binding, [3H]rauwolscine, human α2A receptor
CONDITION NOTES: [3H]rauwolscine, human receptor, LM(tk-) cell lysates; mean; read-out: PKi alpha-2 2a (converted)
Reported Ki values are given for each entry in this list.
API: value field is a number in µM; no unit string.

Worked cases, Ki given:
- COMPOUND: "CCOC(=O)C1(c2ccccc2)CCN(CCCNC(=O)C2=C(C)NC(C)=C(C(C)=O)C2c2ccc([N+](=O)[O-])cc2)CC1 (racemic)"
  PROPERTY LABEL: "Ki"
  U: "µM"
  MEASURED NUMBER: 4.47
- COMPOUND: "CCOC(=O)C1(c2ccccc2)CCN(CCCNC(=O)C2=C(COCCN)NC(CC)=C(C(N)=O)C2c2ccc([N+](=O)[O-])cc2)CC1 (stereo not drawn)"
  PROPERTY LABEL: "Ki"
  U: "µM"
  MEASURED NUMBER: 1.02
- COMPOUND: "CCNC(=O)C1=C(CC)NC(COCCN)=C(C(=O)NCCCN2CCC(C(=O)OCC)(c3ccccc3)CC2)C1c1ccc([N+](=O)[O-])cc1 (stereo not drawn)"
  PROPERTY LABEL: "Ki"
  U: "µM"
  MEASURED NUMBER: 3.72
- COMPOUND: "CCC1=C(C(=O)NC)C(c2ccc([N+](=O)[O-])cc2)C(C(=O)NCCCN2CCC(C(=O)OC)(c3ccccc3)CC2)=C(COCCN)N1 (stereo not drawn)"
  PROPERTY LABEL: "Ki"
  U: "µM"
  MEASURED NUMBER: 3.02
- COMPOUND: "CCC1=C(C(N)=O)C(c2ccc([N+](=O)[O-])cc2)C(C(=O)NCCCN2CCC(C(=O)OC)(c3ccccc3)CC2)=C(CCCCN)N1 (stereo not drawn)"
  PROPERTY LABEL: "Ki"
  U: "µM"
  MEASURED NUMBER: 1.86
- COMPOUND: "COC(=O)C1(c2ccccc2)CCN(CCCNC(=O)C2=C(C)NC(C)=C(C(=O)OCCO)C2c2ccc([N+](=O)[O-])cc2)CC1 (stereo not drawn)"
  PROPERTY LABEL: "Ki"
  U: "µM"
  MEASURED NUMBER: 0.724
- COMPOUND: "COC(=O)C1(c2ccccc2)CCN(CCCNC(=O)C2=C(C)NC(C)=C(C(C)=O)C2c2ccc([N+](=O)[O-])cc2)CC1 (stereo not drawn)"
  PROPERTY LABEL: "Ki"
  U: "µM"
  MEASURED NUMBER: 4.47
- COMPOUND: "CCC1=C(C(N)=O)C(c2ccc([N+](=O)[O-])cc2)C(C(=O)NCCCN2CCC(c3ccccc3)(c3ccccc3)CC2)=C(CCCCN)N1 (stereo not drawn)"
  PROPERTY LABEL: "Ki"
  U: "µM"
  MEASURED NUMBER: 1.1

What measured Ki goes with COC(=O)C1(c2ccccc2)CCN(CCCNC(=O)C2=C(C)NC(C)=C(C(=O)O)C2c2ccc([N+](=O)[O-])cc2)CC1 (stereo not drawn) ?
1.17

What measured Ki goes with CC(=O)C1=C(C)NC(COCCN)=C(C(=O)NCCCN2CCC(c3ccccc3)(c3ccccc3)CC2)C1c1ccc([N+](=O)[O-])cc1 (stereo not drawn) ?
0.794

What measured Ki goes with CCOC(=O)C1(c2ccccc2)CCN(CCCNC(=O)C2=C(COCCN)NC(CC)=C(C(=O)NC)C2c2ccc([N+](=O)[O-])cc2)CC1 (stereo not drawn) ?
3.16

What measured Ki goes with COC(=O)C1(c2ccccc2)CCN(CCCNC(=O)C2=C(C)NC(C)=C(C(N)=O)C2c2ccc([N+](=O)[O-])cc2)CC1 (stereo not drawn) ?
1.12

###

Reported Ki values are given for each entry in this list.
ASSAY TARGET: α1A Human Adrenergic Receptor (Homo sapiens, UniProt P25100)
Construct: The entire coding region of α1A (1719 bp); expressed in transfected cells
Sequence (P25100 whole entry): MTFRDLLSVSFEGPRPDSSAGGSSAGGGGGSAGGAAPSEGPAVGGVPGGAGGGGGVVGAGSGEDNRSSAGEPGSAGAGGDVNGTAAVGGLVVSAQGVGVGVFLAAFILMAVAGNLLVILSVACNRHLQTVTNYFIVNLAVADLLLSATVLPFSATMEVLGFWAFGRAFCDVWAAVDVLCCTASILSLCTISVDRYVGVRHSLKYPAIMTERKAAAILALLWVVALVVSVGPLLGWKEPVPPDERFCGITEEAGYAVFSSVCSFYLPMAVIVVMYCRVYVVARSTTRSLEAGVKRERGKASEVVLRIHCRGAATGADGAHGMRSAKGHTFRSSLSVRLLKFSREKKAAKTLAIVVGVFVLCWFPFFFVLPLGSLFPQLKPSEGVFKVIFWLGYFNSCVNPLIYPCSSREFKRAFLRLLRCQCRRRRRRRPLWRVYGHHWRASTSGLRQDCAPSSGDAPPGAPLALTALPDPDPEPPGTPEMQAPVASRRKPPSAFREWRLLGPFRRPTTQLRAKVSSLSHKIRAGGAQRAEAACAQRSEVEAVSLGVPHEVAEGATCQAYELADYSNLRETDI
ASSAY NOTES: Radioligand binding, [3H]prazosin, cloned human α1A adrenergic receptor
CONDITION NOTES: pKi alpha-1 1a, [3H]prazosin, cloned human α1A receptor, LM(tk−) cell membranes
Where a name gives a salt, the structure may show the parent alone.
API: value field is a number in nM; no unit string.

Worked cases, Ki given:
- COMPOUND: "COc1cccc(C2C(C(N)=O)=C(C)NC(C)=C2C(=O)NCCCN2CCC(c3ccccc3)(c3ccccc3)CC2)c1 (stereo not drawn)"
  MEASURED NUMBER: 2090
- COMPOUND: "CCC1=C(C(N)=O)C(c2ccc([N+](=O)[O-])cc2)C(C(=O)NCCCN2CCC(C)(c3ccccc3)CC2)=C(CC)N1 (stereo not drawn) [Example 106, hydrochloride hydrate]"
  MEASURED NUMBER: 2400

What measured Ki goes with CCNC(=O)C1=C(COCCN=[N+]=[N-])NC(CC)=C(C(=O)NCCCN2CCC(c3ccccc3)(c3ccccc3)CC2)C1c1ccc([N+](=O)[O-])cc1 (stereo not drawn) ?
372

###

ASSAY TARGET: α1B Human Adrenergic Receptor (Homo sapiens, UniProt P35368)
Construct: The entire coding region of α1B (1563 bp); expressed in transfected cells
Sequence (P35368 1-520): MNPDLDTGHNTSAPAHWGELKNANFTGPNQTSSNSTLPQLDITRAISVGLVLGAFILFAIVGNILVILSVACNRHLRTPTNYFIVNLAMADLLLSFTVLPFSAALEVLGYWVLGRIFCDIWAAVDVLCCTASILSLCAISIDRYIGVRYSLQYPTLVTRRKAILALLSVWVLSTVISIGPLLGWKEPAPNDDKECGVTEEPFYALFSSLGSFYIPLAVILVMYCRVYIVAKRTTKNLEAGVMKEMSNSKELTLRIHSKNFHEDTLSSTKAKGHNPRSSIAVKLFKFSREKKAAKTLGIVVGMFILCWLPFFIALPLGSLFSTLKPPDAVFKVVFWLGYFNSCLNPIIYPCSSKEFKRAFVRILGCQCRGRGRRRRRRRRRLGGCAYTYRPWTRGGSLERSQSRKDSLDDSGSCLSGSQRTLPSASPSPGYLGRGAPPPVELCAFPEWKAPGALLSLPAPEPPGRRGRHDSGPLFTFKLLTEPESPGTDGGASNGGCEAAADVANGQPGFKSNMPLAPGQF
ASSAY NOTES: Radioligand binding, [3H]prazosin, cloned human α1B adrenergic receptor
CONDITION NOTES: cloned human receptor, LM(tk-) cell membranes, mean, read-out: PKi alpha-1 1b (converted)
PROPERTY LABEL: Ki (nM)
API: value field is a number in nM; no unit string.

What measured Ki goes with CCC1=C(C(N)=O)C(c2ccc([N+](=O)[O-])cc2)C(C(=O)NCCCN2CCC(C(=O)OC)(c3ccccc3)CC2)=C(CC)N1 (stereo not drawn) ?
2000

What measured Ki goes with CCC1=C(C(=O)OCCC#N)C(c2ccc([N+](=O)[O-])cc2)C(C(=O)NCCCN2CCC(C(=O)OC)(c3ccccc3)CC2)=C(COCCN=[N+]=[N-])N1 (stereo not drawn) ?
97.7

What measured Ki goes with CC1=C(C(N)=O)C(c2ccc([N+](=O)[O-])cc2)C(C(=O)NCCCN2CCC(C(=O)O)(c3ccccc3)CC2)=C(C)N1 (stereo not drawn) ?
44700

What measured Ki goes with CCOC(=O)C1(c2ccccc2)CCN(CCCNC(=O)C2=C(COCCN=[N+]=[N-])NC(CC)=C(C(=O)NC)C2c2ccc([N+](=O)[O-])cc2)CC1 (stereo not drawn) ?
1350

What measured Ki goes with CCNC(=O)C1=C(CC)NC(COCCN)=C(C(=O)NCCCN2CCC(C(=O)OC)(c3ccccc3)CC2)C1c1ccc([N+](=O)[O-])cc1 (stereo not drawn) ?
1620

What measured Ki goes with CCNC(=O)C1=C(CC)NC(COCCN=[N+]=[N-])=C(C(=O)NCCCN2CCC(C(=O)OC)(c3ccccc3)CC2)C1c1ccc([N+](=O)[O-])cc1 (stereo not drawn) ?
692

###

ASSAY TARGET: α2A receptor (Homo sapiens)
Construct: host or cells: LM(tk-) cells, line L-α2A
ASSAY NOTES: Competition binding, [3H]rauwolscine, human α2A receptor
CONDITION NOTES: [3H]rauwolscine, LM(tk-) cell line L-α2A; SEM and n in lines below; read-out: pKi alpha-2 2a (converted)
Counter-ions that a name gives are not always drawn.
PROPERTY LABEL: Ki

Worked cases, Ki given:
- COMPOUND: "COC(=O)C1=C(C)NC(C)=C(C(=O)NCCCN2CCCCC2)C1c1ccc([N+](=O)[O-])cc1 (stereo not drawn)"
  ASSAY TARGET: "α2A receptor (Homo sapiens)"
  RESULT: "447 nM"
- COMPOUND: "COC(=O)C1=C(C)NC(C)=C(C(=O)NCCCN2CCC(c3ccccc3)CC2)C1c1ccc([N+](=O)[O-])cc1 (single isomer, unassigned; (-)) [(−)-45, hydrochloride hemihydrate]"
  ASSAY TARGET: "α2A receptor (Homo sapiens)"
  RESULT: "339 nM"
- COMPOUND: "CC1=C(C(N)=O)C(c2cccc([N+](=O)[O-])c2)C(C(=O)NCCCN2CCC(c3ccccc3)CC2)=C(C)N1 (stereo not drawn)"
  ASSAY TARGET: "α2A receptor (Homo sapiens)"
  RESULT: "24.5 nM"

What measured Ki goes with COC(=O)C1=C(C)NC(C)=C(C(=O)NCCCN2CCC(c3ccccc3)CC2)C1c1ccc(C)cc1 (stereo not drawn) ?
158 nM

What measured Ki goes with COC(=O)C1=C(C)NC(C)=C(C(=O)OCCCN2CCC(c3ccccc3)CC2)C1c1ccc([N+](=O)[O-])cc1 (stereo not drawn) [Example 48, hydrochloride hydrate] ?
17.4 nM

What measured Ki goes with COC(=O)C1=C(C)NC(C)=C(C(=O)NCCCN2CCC(c3ccccc3)CC2)C1c1cccc([N+](=O)[O-])c1 (stereo not drawn) ?
117 nM

What measured Ki goes with CC1=C(C(=O)NCCCN2CCC(c3ccccc3)(c3ccccc3)CC2)C(c2ccc([N+](=O)[O-])cc2)C2=C(CCCC2=O)N1 (stereo not drawn) ?
1860 nM

What measured Ki goes with CCC1=C(C(N)=O)C(c2ccc([N+](=O)[O-])cc2)C(C(=O)NCCCN2CCC(c3ccccc3)(c3ccccc3)CC2)=C(C)N1 (stereo not drawn) ?
427 nM
